Source of measurements: ChEMBL document CHEMBL1144399

Target: Melanocortin receptor 4 (Homo sapiens)
Sequence (P32245 whole entry): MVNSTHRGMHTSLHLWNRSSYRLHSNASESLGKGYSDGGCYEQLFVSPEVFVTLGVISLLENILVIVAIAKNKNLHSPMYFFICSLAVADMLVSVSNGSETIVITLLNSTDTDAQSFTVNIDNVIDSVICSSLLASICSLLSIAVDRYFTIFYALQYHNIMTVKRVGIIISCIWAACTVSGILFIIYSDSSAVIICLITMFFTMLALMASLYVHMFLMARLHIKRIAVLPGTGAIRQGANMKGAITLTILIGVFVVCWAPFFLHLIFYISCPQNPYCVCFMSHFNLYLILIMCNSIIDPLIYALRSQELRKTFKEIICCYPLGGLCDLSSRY
Experiment: Displacement of [125I]NDP-MSH from human melanocortin receptor-4 expressed in 293 HEK cells
pIC50: −log10 of the molar value. Where a SMILES comes first, the peptide text is derived from it. [ ]: non-standard residue; d: D form. Gly(N-(CH2)3-guanidino) = N=C(N)NCCCNCC(=O)O; NBuGly = CCCCNCC(=O)O; Nlys = NCCCCNCC(=O)O
measurement_name: pIC50

Example results:
{"columns": ["compound", "measurement_name", "recorded_measurement"],
 "data": [
  ["CCCC[C@H](NC(C)=O)C(=O)NCC(=O)N(CCCCN)CC(=O)NC(Cc1ccccc1)C(=O)N(CCCNC(=N)N)CC(=O)N(CCc1c[nH]c2ccccc12)CC(=O)NCC(N)=O (single isomer, unassigned)", "pIC50", 6.30],
  ["CCCC[C@H](NC(C)=O)C(=O)NCC(=O)N[C@@H](CCCCN)C(=O)N[C@H](Cc1ccccc1)C(=O)N(CCCNC(=N)N)CC(=O)N[C@@H](Cc1c[nH]c2ccccc12)C(=O)NCC(N)=O", "pIC50", 6.40],
  ["CCCCN(CC(=O)NCC(=O)N[C@@H](CCCCN)C(=O)N[C@H](Cc1ccccc1)C(=O)N(CCCN=C(N)N)CC(=O)N(CC(=O)NCC(N)=O)Cc1c[nH]c2ccccc12)C(C)=O", "pIC50", 6.10],
  ["CCCC[C@H](NC(C)=O)C(=O)NCC(=O)N[C@@H](CCCCN)C(=O)N[C@H](Cc1ccccc1)C(=O)N[C@@H](CCCN=C(N)N)C(=O)N(CCc1c[nH]c2ccccc12)CC(=O)NCC(N)=O", "pIC50", 6.50],
  ["CCCCN(CC(=O)NCC(=O)N[C@@H](CCCCN)C(=O)N[C@H](Cc1ccccc1)C(=O)N[C@@H](CCCNC(=N)N)C(=O)N(CC(=O)NCC(N)=O)Cc1c[nH]c2ccccc12)C(C)=O", "pIC50", 6.10],
  ["CCCC[C@H](NC(C)=O)C(=O)NCC(=O)N[C@@H](CCCCN)C(=O)N[C@H](Cc1ccccc1)C(=O)N(CCCNC(=N)N)CC(=O)N(CCc1c[nH]c2ccccc12)CC(=O)NCC(N)=O", "pIC50", 7.10],
  ["CCCCN(CC(=O)NCC(=O)N(CCCCN)CC(=O)N[C@H](Cc1ccccc1)C(=O)N(CCCN=C(N)N)CC(=O)N(CCc1c[nH]c2ccccc12)CC(=O)NCC(N)=O)C(C)=O", "pIC50", 6.00],
  ["CCCCN(CC(=O)NCC(=O)N(CCCCN)CC(=O)N[C@@H](Cc1ccccc1)C(=O)N(CCCN=C(N)N)CC(=O)N[C@@H](Cc1c[nH]c2ccccc12)C(=O)NCC(N)=O)C(C)=O (Ac-[NBuGly]G[Nlys]F[Gly(N-(CH2)3-guanidino)]WG-NH2)", "pIC50", 5.30],
  ["CCCCN(CC(=O)NCC(=O)N(CCCCN)CC(=O)N[C@H](Cc1ccccc1)C(=O)N(CCCN=C(N)N)CC(=O)N(CC(=O)NCC(N)=O)Cc1c[nH]c2ccccc12)C(C)=O", "pIC50", 5.40]
]}

a. CCCC[C@H](NC(C)=O)C(=O)NCC(=O)N(CCCCN)CC(=O)NC(Cc1ccccc1)C(=O)N(CCCNC(=N)N)CC(=O)N(CC(=O)NCC(N)=O)Cc1c[nH]c2ccccc12 (single isomer, unassigned)
b. CCCC[C@H](NC(C)=O)C(=O)NCC(=O)N(CCCCN)CC(=O)N[C@H](Cc1ccccc1)C(=O)N[C@@H](CCCN=C(N)N)C(=O)N(CC(=O)NCC(N)=O)Cc1c[nH]c2ccccc12
c. CCCCN(CC(=O)NCC(=O)N(CCCCN)CC(=O)N[C@H](Cc1ccccc1)C(=O)N[C@@H](CCCNC(=N)N)C(=O)N(CC(=O)NCC(N)=O)Cc1c[nH]c2ccccc12)C(C)=O
### Prompt Task for the reader: rank each entry by its pIC50, from the minimum upward. Put the labels in the requested order and write them down.
### Response a, c, b
(a: 5.50, c: 6.10, b: 6.80)
